Target: Prostaglandin G/H synthase 1 (Homo sapiens, UniProt P23219)
Sequence (P23219 whole entry): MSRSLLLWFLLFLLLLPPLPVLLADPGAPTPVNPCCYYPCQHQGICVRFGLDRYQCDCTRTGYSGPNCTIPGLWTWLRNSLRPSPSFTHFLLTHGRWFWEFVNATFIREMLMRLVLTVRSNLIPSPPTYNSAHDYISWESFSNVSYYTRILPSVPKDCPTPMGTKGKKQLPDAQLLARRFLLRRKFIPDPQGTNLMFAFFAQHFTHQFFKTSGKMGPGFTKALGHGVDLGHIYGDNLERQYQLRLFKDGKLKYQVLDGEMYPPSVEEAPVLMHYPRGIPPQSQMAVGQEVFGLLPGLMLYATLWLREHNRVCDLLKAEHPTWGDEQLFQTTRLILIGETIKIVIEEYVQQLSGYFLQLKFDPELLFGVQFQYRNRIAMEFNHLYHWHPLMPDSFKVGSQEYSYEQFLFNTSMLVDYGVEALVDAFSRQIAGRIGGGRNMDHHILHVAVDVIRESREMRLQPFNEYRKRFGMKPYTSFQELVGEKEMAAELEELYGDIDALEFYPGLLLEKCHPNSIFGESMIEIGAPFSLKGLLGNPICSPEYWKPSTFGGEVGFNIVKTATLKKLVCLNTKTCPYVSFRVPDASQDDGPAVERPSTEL
Test: Inhibition of human recombinant COX1 in human platelets by enzyme immunoassay
REPORTED_METRIC: pIC50
Keep it numeric: pIC50 is minus log10 of the concentration in mol/L.

-- ask Item O=[N+]([O-])c1ccc2c(c1)S(=O)(=O)N=S2c1ccc(Br)cc1 (stereo unspecified) with Prostaglandin G/H synthase 1 (Homo sapiens, UniProt P23219) - pIC50?
-- reply 5.17

---

Molecular target: Prostaglandin G/H synthase 2 (Mus musculus)
Sequence (Q05769 whole entry): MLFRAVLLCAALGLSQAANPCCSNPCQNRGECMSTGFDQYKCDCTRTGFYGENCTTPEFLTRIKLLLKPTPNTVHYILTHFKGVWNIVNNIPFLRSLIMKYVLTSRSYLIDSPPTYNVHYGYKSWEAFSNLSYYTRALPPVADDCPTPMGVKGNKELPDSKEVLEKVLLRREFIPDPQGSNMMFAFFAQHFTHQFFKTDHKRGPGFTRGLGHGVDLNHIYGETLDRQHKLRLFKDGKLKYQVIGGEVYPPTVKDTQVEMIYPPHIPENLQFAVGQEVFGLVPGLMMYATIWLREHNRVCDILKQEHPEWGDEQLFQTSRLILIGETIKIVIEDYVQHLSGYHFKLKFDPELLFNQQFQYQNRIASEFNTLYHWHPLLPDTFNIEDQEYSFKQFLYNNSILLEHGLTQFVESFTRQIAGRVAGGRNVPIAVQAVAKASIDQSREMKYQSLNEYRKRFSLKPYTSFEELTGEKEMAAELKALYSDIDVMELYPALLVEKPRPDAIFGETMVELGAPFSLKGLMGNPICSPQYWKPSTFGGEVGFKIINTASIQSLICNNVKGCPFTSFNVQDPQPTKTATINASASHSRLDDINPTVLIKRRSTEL
Assay: Inhibition of COX2 in mouse RAW264.7 cells by enzyme immunoassay
REPORTED_METRIC: IC50 (µM)
Give a bare numeral; the unit µM is implied.

-- ask I'd like to know its IC50. The molecule in question is O=[N+]([O-])c1ccc2c(c1)S(c1ccc(Br)cc1)=NS2(=O)=O (configuration not stated)
-- reply 18.1

-- ask What does the record list as IC50 for O=[N+]([O-])c1ccc2c(c1)S(=O)(=O)N=S2c1ccc(Br)cc1 (configuration not stated) ?
-- reply 4.4
